Would you kindly list protein stability index for each of these variants?
B1: ZC3H15 (parent)
chain: ENLFTGEDLDELEEELNTLDLEE

variants of: B1; assay: protein stability index of a GFP-peptide fusion (GPS, HEK-293T) (PSI 1-6); higher = more stable; details: c terminus: native;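 note: lentivirally expressed fusions sorted by FACS into six bins by GFP to DsRed ratio, PSI derived from sequencing read proportions per bin multiplied by bin number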
Give bare numbers.

Below, each entry is followed by its recorded protein stability index result.
- MUTANT_NAME: "E14W"
  protein stability index: 3.7
- MUTANT_NAME: "E22K"
  protein stability index: 5.67
- MUTANT_NAME: "D20A"
  protein stability index: 4.55
- MUTANT_NAME: "E11D"
  protein stability index: 4.58
- MUTANT_NAME: "L9K"
  protein stability index: 2.38

For every item in the list below, what is its measured protein stability index?
1. E7N
2. D8S
3. E13C
4. L16W
5. L19I
6. L9M
7. L3P
8. E14V

Marked response:
1. 4.68
2. 5.14
3. 5.19
4. 2.9
5. 3.98
6. 4.69
7. 4.65
8. 3.65

For every item in the list below, what is its measured protein stability index?
1. D10P
2. L3V
3. T18K
4. E14P
5. E1W
6. G6Y
7. E22N

Marked response:
5
4.6
5.53
3.42
2.89
4.58
5.37
